test system: P. aeruginosa PAO397; assay: Broth microdilution MIC, P. aeruginosa PAO397; format: cell-based; conditions: Pseudomonas aeruginosa, PAO397, 18 h, read-out: PAO397 KO MIC
Measured MIC, listed per entry.

Examples from the recorded data:
{"COMPOUND": "N#Cc1ccc(CN(Cc2nnc(N)o2)C(=O)CSc2ncccc2Cl)cn1 [compound 12]", "TEST_SYSTEM": "P. aeruginosa PAO397", "MIC": "< 1 µg/mL"}
{"COMPOUND": "Cc1nnc(CN(Cc2ccc(C#N)cc2)C(=O)CSc2ccccc2Cl)o1 [Compound No. 65]", "TEST_SYSTEM": "P. aeruginosa PAO397", "MIC": "1 to 16 µg/mL"}

# MIC measured on P. aeruginosa PAO397 for item N#Cc1ccc(CN(Cc2cn[nH]c2)C(=O)CSc2ccccc2Cl)cc1 [compound 50] = 1 to 16 µg/mL

# MIC measured on P. aeruginosa PAO397 for item NC(=O)c1ccc(CN(Cc2nnc(N)o2)C(=O)CSc2ccccc2Cl)cc1 [compound 76] = 1 to 16 µg/mL

# MIC measured on P. aeruginosa PAO397 for item Cc1ncc(CN(Cc2ccc(C#N)cc2)C(=O)CSc2ccccc2Cl)o1 [compound 73] = 1 to 16 µg/mL
